- Test system: MALME-3M melanoma
- assay_explanation: NCI-60 one-dose screen, 48 h (100 = growth as untreated, 0 = no growth, -100 = all killed)
- condition_label: 10 µM unless noted
- Description: Cells are grown in 96 well plates and exposed to the test compound for 48 hours. Compounds are tested at a single concentration, which is 10^-5 M for most compounds. The reported endpoint is percent growth (GI% or GIPRCNT), where numbers from 0 - 100% represent growth inhibition, and numbers from -100% - 0 represent cell death. For example, a value of 40 represents 60% growth inhibition. A value of 0 means no net growth occurred over the course of the experiment. […]
Compounds without any hit were thinned out: in the full panel of roughly 83,000, 20% have a hit.
assay_metric: growth (%)
Field format: number, assumed %, no unit text.

The cases that follow already have their growth on record.
CCCc1nc2ccccn2c1Nc1ccc(C(=O)NO)cc1
86.7
CCn1c(Sc2nnc(Nc3ccccc3)s2)nc2c1c(=O)n(C)c(=O)n2C
94.9

Give recorded growth with MALME-3M melanoma for the following molecule: CCc1nc2ccccc2[nH]1
122

Give recorded growth with MALME-3M melanoma for the following molecule: COc1ccc(OC)c(Nc2nc3nonc3nc2Nc2cc(OC)ccc2OC)c1
29.9

Give recorded growth with MALME-3M melanoma for the following molecule: COc1ccc(N(C)c2nc(Cl)nc3cnn(C)c23)cc1
75.3

----------
# growth values compiled below
- Tested on: NCI-H460 lung
- assay_explanation: NCI-60 one-dose screen, 48 h (100 = growth as untreated, 0 = no growth, -100 = all killed)
- condition_label: 10 µM unless noted
- Description: Growth inhibition of the NCI-H460 human Non-Small Cell Lung tumor cell line is measured as a screen for anti-cancer activity. Cells are grown in 96 well plates and exposed to the test compound for 48 hours. Compounds are tested at a single concentration, which is 10^-5 M for most compounds. The reported endpoint is percent growth (GI% or GIPRCNT), where numbers from 0 - 100% represent growth inhibition, and numbers from -100% - 0 represent cell death. […]
This is part of a sample that, as a whole, favours compounds with a hit. Of some 83,000 tested, about 20% had one in any assay.
Field format: number, assumed %, no unit text.

The cases that follow already have their growth on record.
COc1ccc(N=c2nc3sc4cc(Cl)ccc4n3c(N)c2C#N)cc1
102
CNC1(C#N)CCN(Cc2ccccc2)CC1
108
CN(C)c1ccc(/C=C2\C=C(c3ccccc3)N(CCc3ccccc3)C2=O)cc1
23.6
CCCc1cc(=O)oc2c3c(c4c(c12)OC(C)(C)C=C4)O[C@@H](C)[C@H](C)C3=O
60.5

Give recorded growth with NCI-H460 lung for the following compound: Cc1nc(Nc2ccc(S(=O)(=O)Nc3cc(C)on3)cc2)c2ccccc2n1
112

Give recorded growth with NCI-H460 lung for the following compound: CC(=O)c1ccc2c(c1)CCN2
117

Give recorded growth with NCI-H460 lung for the following compound: C=C(C)C1CCC(=C)C2CCC3(C)OC12/C=C(/COC(C)=O)CCC3O (configuration not stated)
104

----------
# growth values compiled below
- System: SW-620 colon
- assay_explanation: NCI-60 one-dose screen, 48 h (100 = growth as untreated, 0 = no growth, -100 = all killed)
- condition_label: 10 µM unless noted
The panel holds about 83,000 compounds, 20% with a hit somewhere; the sample as a whole holds those more often.
Field format: number, assumed %, no unit text.

Look up growth: O=C(Nc1cccc2[nH]c(C(F)(F)F)nc12)c1cc(Cl)ccc1Cl
42.4

Look up growth: CCN(CC)N=Nc1nn(C(=O)Nc2ccc(Cc3ccccc3)cc2)c2ccc(Cl)cc12
44.4

Look up growth: CCCCCCN(CCCCCC)CC(O)c1cccc2ccc(Cl)cc12 (stereo not given)
35.7

Look up growth: O=C(CCc1nc(-c2cccc(Cl)c2)no1)Nc1ccccn1
103

Look up growth: C/C(=N\NC(=O)Cn1c(-c2ccc(S(C)(=O)=O)cc2)nc2cc(Cl)ccc21)c1ccc(Cl)cc1
92.2
